system: A549 (lung adenocarcinoma); test: Cytotoxicity, MTT assay, A549; type: cell-based, human; details: Homo sapiens, A549, A549 cell line, mean ± s.d. (n = 3)
pIC50: −log10 of the molar value.
pIC50 vs 5: at or above is yes, below is no.

* C=CC(=C)CC[C@]1(C)[C@H](C)C[C@H](O)[C@@]23C(=C[C@H](OC(=O)CC(C)C)C[C@@H]12)[C@@H](OC(C)=O)O[C@H]3OC(C)=O [Compound 8, corymbulosin X] | yes
* C=CC(=C)CC[C@]1(C)[C@H]2C[C@H](OC(=O)CC(C)C)C=C3[C@H](OC(C)=O)O[C@H](OC(C)=O)[C@@]32[C@H](OC)C[C@@H]1C [Compound 9, caseargrewiin A] | yes
* C=CC(=C)CCC1(C)C(C)C(OC(=O)C=Cc2ccc(O)cc2)C(O)C23C(=CC(OC(=O)CC(C)C)CC12)C(OC)OC3OC(C)=O (stereo not shown) [Compound 13, Grewiifopene F] | no
* C=CC(=C)CC[C@]1(C)[C@H](C)C[C@H](O)[C@@]23C(=C[C@H](OC(=O)[C@@H](C)CC)C[C@@H]12)[C@@H](OC(C)=O)O[C@H]3OC(C)=O [Compound 7, isocaseamembrin E] | yes
* C=CC(=C)CC[C@]1(C)[C@H](C)[C@@H](OC(C)=O)[C@H](OC(C)=O)[C@@]23C(=C[C@H](OC(=O)CC(C)C)C[C@@H]12)[C@@H](OC(C)=O)O[C@H]3OC(C)=O [Compound 3, Grewiifopene C] | yes
* C=CC(=C)CC[C@]1(C)[C@H](C)C[C@H](OC)[C@@]23C(=C[C@H](OC(=O)[C@@H](C)CC)C[C@@H]12)[C@@H](OC)O[C@H]3OC(C)=O [Compound 11, balanspene F] | yes
* COC1=CC(=O)C=C(OC)C1(O)CC(C)=O [Compound 20, 4-acetonyl-3,5-dimethoxy-p-quinol] | no
